Target: T1, CXCL9_HUMAN (human, UniProt Q07325 23-125)
T1 sequence: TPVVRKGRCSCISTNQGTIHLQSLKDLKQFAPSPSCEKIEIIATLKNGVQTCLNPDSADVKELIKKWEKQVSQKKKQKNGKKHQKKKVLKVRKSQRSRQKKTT
Experiment: YSD FACS
Provide the recorded % cells over threshold fluorescence for the entries that follow.
Record the result as number plus unit.

Inquiry: So what's the measured % cells over threshold fluorescence for this one? P1124_IXORI (other, yeast surface display) DSKGTSDSQDSTKSIKVDFCETNCTKTDGGWTGCTGDCICVSVGDSIEGRCMDFG
Reply text: 31%

Inquiry: Any idea what its % cells over threshold fluorescence is? The binder is P1074_IXORI (other, yeast surface display) GSKESSAHQSSDDSIKAEFCDAKCTMKTDGKWTQCHGGCFCVHVGNETEGRCMRLDGDYDYPSTQPEE
Reply text: 35%

Inquiry: Reported % cells over threshold fluorescence, binder P458_IXORI (other, yeast surface display) GSKQPGAAGSSSDSVEAVFCPTNCTKGTNGAWSGCSDDCICVHVGENTEGSCMKFSGDYDYPTPEA : ____
Reply text: 37%

Inquiry: Param item = P1100_IXORI (other, yeast surface display) GSKGSSASQSSDNSVVAKFCDTNCTINEGGKWTECKGGCFCVHVGNETVGRCMKLDGDYDYPSPKPEE ; retrieve measured % cells over threshold fluorescence.
Reply text: 55%

Inquiry: // returns reported % cells over threshold fluorescence for input P1086_IXORI (other, yeast surface display) GSKGQRASQVSETSITAEFCDTSCTQGTDKTWSGCSGDCFCVHVGNDTEGRCMRWDGDYPSAEEEE
Reply text: 54%

Inquiry: Requested read-out: % cells over threshold fluorescence. Entry: P1126_AMBCA (other, yeast surface display) KPQILQRTDKSTDSEWDPQTCPETCIPSKNITCSDGCVCVKLGEEEEGTCFNMTGVDWLGSPSDD
Reply text: 56%

Inquiry: Fill blank: measured % cells over threshold fluorescence of the binder P1080_IXORI (other, yeast surface display) SAGSKGSSAPQSSGDSVVAEFCDTNCTMKKDGKWTECNGDCFCVHVGNETVGRCMRLDGDYDYTSSKTTRRNKKTRNGLCRLDRNRTTVDYPERNTREP is ____.
Reply text: 49%

Value source: patent US20200247855A1
